Source: PubChem BioAssay AID1159580

PROTOCOL TEXT: chemical genetic growth profiling, strain panel (AID 1159580);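 further: tested at 20 µM; growth read once vehicle control cultures reached saturation at 30 °C; 1 = growth at the plate median or of vehicle wells; lower values mean less growth of the strain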
MEASUREMENT PARAMETERS: S. cerevisiae deletion strains, growth OD, locus YDR150W, strain NUM1, hits give low values
Among all 5,500 compounds or so, about 2,000 (36%) were called active. Roughly 18% stayed inconclusive and do not appear here. The list shows a part of the results.
PROPERTY MEASURED: normalized growth
Just the number, please, no unit attached.

// worked examples, normalized growth included
>  <SAMPLE SMILES>
CC(C)c1ccccc1NC(=S)N1CCN(c2ncc(C(F)(F)F)cc2Cl)CC1

>  <normalized growth>
1.02

$$$$
>  <SAMPLE SMILES>
O=C(Nc1cc(C(=O)Nc2ccc(S(=O)(=O)O)cc2S(=O)(=O)O)cc(C(=O)Nc2ccc(S(=O)(=O)O)cc2S(=O)(=O)O)c1)Nc1cc(C(=O)Nc2ccc(S(=O)(=O)O)cc2S(=O)(=O)O)cc(C(=O)Nc2ccc(S(=O)(=O)O)cc2S(=O)(=O)O)c1

>  <normalized growth>
0.997

$$$$

Next, consider the following compound.
Prompt: Form field: reported normalized growth of Nc1ncnc2c1ncn2C1CCCC1
Response: 1

---

PROTOCOL TEXT: chemical genetic growth profiling, strain panel (AID 1159580);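 further: tested at 20 µM; growth read once vehicle control cultures reached saturation at 30 °C; 1 = growth at the plate median or of vehicle wells; lower values mean less growth of the strain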
MEASUREMENT PARAMETERS: S. cerevisiae deletion strains, growth OD, locus YGL253W, strain hxk2, hits give low values
In all, about 5,500 compounds went through this assay and about 2,000 (36%) were called active. Roughly 18% stayed inconclusive and do not appear here. The list shows a part of the results.
PROPERTY MEASURED: normalized growth
Just the number, please, no unit attached.

Prompt: Form field: reported normalized growth of Nc1c2c(nc3ccccc13)CCCC2O (stereo unspecified)
Response: 1

Prompt: Form field: reported normalized growth of N=C(N)SCCN
Response: 1.01

Prompt: Form field: reported normalized growth of N#CC(O[C@@H]1O[C@H](CO[C@@H]2O[C@H](CO)[C@@H](O)[C@H](O)[C@H]2O)[C@@H](O)[C@H](O)[C@H]1O)c1ccccc1 (stereo partly specified)
Response: 0.985

Prompt: Form field: reported normalized growth of COc1ccc2c3c([nH]c2c1)C(C)=NCC3
Response: 1.03

Prompt: Form field: reported normalized growth of Nc1c2ccccc2nc2ccccc12 (tested in a mixture with another compound)
Response: 0.582

---

PROTOCOL TEXT: chemical genetic growth profiling, strain panel (AID 1159580);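 further: tested at 20 µM; growth read once vehicle control cultures reached saturation at 30 °C; 1 = growth at the plate median or of vehicle wells; lower values mean less growth of the strain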
MEASUREMENT PARAMETERS: S. cerevisiae deletion strains, growth OD, locus YBR021W, strain FUR4, hits give low values
Hit rate of the full screen: of about 5,500 compounds, about 2,000 (36%) were called active. Inconclusive results (about 18%) are left out. The list shows a part of the results.
Reported normalized growth values are given for each entry in this list.
Just the number, please, no unit attached.

// worked examples, normalized growth included
>  <MOLECULE>
O=C(COc1ccc(Cl)cc1)N1CCN(Cc2ccc3c(c2)OCO3)CC1

>  <normalized growth>
0.977

$$$$
>  <MOLECULE>
COc1cc(C(=O)O[C@H]2CC[C@@]3(C)[C@@H]4CC[C@H]5[C@]6(O)C[C@H](O)[C@@]7(O)[C@@H](CN8C[C@@H](C)CC[C@H]8[C@@]7(C)O)[C@]6(O)C[C@@]53O[C@]24O)cc(OC)c1OC

>  <normalized growth>
1.01

$$$$
>  <MOLECULE>
Cc1ccc(-c2cc(C(F)(F)F)nn2-c2ccc(S(N)(=O)=O)cc2)cc1

>  <normalized growth>
1

$$$$
>  <MOLECULE>
O=C1C(O)=C(O)C(=O)C(O)=C1O

>  <normalized growth>
1.01

$$$$
>  <MOLECULE>
COc1cccc(OC)c1OCCNCC1COc2ccccc2O1 (stereo not drawn)

>  <normalized growth>
0.991

$$$$

Prompt: Form field: reported normalized growth of C#C[C@]1(O)CCC2C3CCC4=CC(=O)CC[C@@H]4C3CC[C@@]21CC (stereo partly drawn)
Response: 1

Prompt: Form field: reported normalized growth of CC(=O)NCc1c(I)c(NC(C)=O)c(I)c(C(=O)O)c1I
Response: 1.02

Prompt: Form field: reported normalized growth of C#C[C@]1(OC(C)=O)CCC2C3CCC4=CC(=O)CC[C@@H]4C3CC[C@@]21C (stereo partly drawn)
Response: 0.98
